Study Target: T1, recombinant human Tau monomer, 2N4R isoform (amino acids 2-441) (human, UniProt P10636-8 2-441)
T1 construct: range 2-441; N-terminal His-tag removed with TEV protease; also called monomeric Tau
T1 sequence (P10636 other isoform, or with tags, fused parts or gaps limits assumed): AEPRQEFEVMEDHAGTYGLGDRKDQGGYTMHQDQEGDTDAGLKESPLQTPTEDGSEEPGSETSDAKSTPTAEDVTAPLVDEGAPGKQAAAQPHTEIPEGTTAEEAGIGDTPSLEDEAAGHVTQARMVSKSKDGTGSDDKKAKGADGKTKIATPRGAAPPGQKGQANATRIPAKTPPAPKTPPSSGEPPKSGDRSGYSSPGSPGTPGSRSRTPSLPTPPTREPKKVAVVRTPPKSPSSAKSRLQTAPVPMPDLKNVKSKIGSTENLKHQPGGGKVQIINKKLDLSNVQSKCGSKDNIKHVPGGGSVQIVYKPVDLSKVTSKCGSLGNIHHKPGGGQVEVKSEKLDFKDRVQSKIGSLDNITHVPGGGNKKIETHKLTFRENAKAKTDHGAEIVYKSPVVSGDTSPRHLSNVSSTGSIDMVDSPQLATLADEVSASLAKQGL
Assay Info: SPR, mIgG2a captured, Tau monomer analyte, 1:1 fit
# koff listing for each entry below
Returns: string containing the numeric result and its unit.

126F11-G11 (antibody, mouse IgG2a, V domains shown) VH: EVQLQQSGAELVRPGASVKLSCTASGFNIKDDYMHWVKQRPEQGLEWIGWIDPENGDTEYASKFQGKATITTDTSSNTAYLQLSSLTSEDTAVYYCLDFAYGYWGQGTTLTVSS VL: DVLMTQTPLSLPVSLGDQASISCRSSQSIVHSNGNTYLEWYLQKPGQSPKLLIYKVSNRFSGVPDRFSGSGSGTDFTLKISRVEAEDLGVYYCFQGSHVPPAFGGGTKLEIK | 0.004 s⁻¹

Which value of koff has been reported for 89F4-A1 (antibody, mouse IgG2a, V domains shown) VH: EVQLVESGGGLVQPKGSLKLSCAASGFTFNTYAMNWVRQAPGKGLEWVARIRSKSNNYAAYFADSVKDRFTISRDDSQTMLYLQMNNLKSEDTAMYYCVSGGNYVPFAYWGQGTLVTVSA VL: NIMMTQSPSSLAVSAGEKVTMSCKSSQSVFYSSEQRNYLAWYQQKPGQSPKLLISWASTRESGVPDRFTGSGSGTDFTLTISSVQGEDLAVYYCHQYLSSFTFGSGTKLEIK in the records?
0.007 s⁻¹

Next binder: 37D3-H9 (antibody, mouse IgG2a, V domains shown, also called 37D3-H9 mIgG2a; 37D3-H9 IgG) VH: EVQLVESGGDLAKPGGSLKLSCTASGLIFRSYGMSWVRQTPDKRLEWVATINSGGTYTYYPDSVKGRFTISRDNAKNTLYLQMSSLKSEDTAMYYCANSYSGAMDYWGQGTSVTVSS VL: DDLLTQTPLSLPVSLGDPASISCRSSQSIVHSNGNTYFEWYLQKPGQSPKLLIYKVSNRFSGVPDRFSGSGSGTDFTLKISRVEAEDLGVYYCFQGSLVPWTFGGGTKLEIK
0.0001 s⁻¹
